The measurements presented in this section are drawn from patent US6762188B1.

# IC50 values compiled below
Tested on: SW480 human colon adenocarcinoma
measurementNotes: Tumor cell culture cytotoxicity (MTT dye reduction), SW480
testSettings: Homo sapiens, SW480, read-out: Tumor Cell Culture Cytotoxicity IC50 SW480, Table B, fully aromatic 3-amino derivatives

{"columns": ["molSmiles", "testSystem", "readoutUnits", "IC50"],
 "data": [
  ["Nc1nc2ccc3ccc(O)cc3c2c(=O)[nH]1", "SW480 human colon adenocarcinoma", "µM", 40],
  ["Nc1nc2ccc3ccc(Br)c(N)c3c2c(=O)[nH]1", "SW480 human colon adenocarcinoma", "µM", 30],
  ["CCN(CC)S(=O)(=O)c1ccc2ccc3nc(N)[nH]c(=O)c3c2c1", "SW480 human colon adenocarcinoma", "µM", 15],
  ["CCc1ccc2ccc3nc(N)[nH]c(=O)c3c2c1", "SW480 human colon adenocarcinoma", "µM", 20],
  ["Nc1nc2ccc3c(Br)cccc3c2c(=O)[nH]1", "SW480 human colon adenocarcinoma", "µM", 10],
  ["Cc1cccc2c1ccc1nc(N)[nH]c(=O)c12", "SW480 human colon adenocarcinoma", "µM", 35]
]}

---

System: SW480 human colon adenocarcinoma
measurementNotes: Tumor cell culture cytotoxicity (MTT dye reduction), SW480
testSettings: read-out: Tumor Cell Culture Cytotoxicity IC50 SW480; Table E, fully aromatic 3-methyl derivatives
pIC50: −log10 of the molar value.

{"columns": ["molSmiles", "pIC50"],
 "data": [
  ["Cc1nc2ccc3ccc(CNc4ccc(C(=O)N[C@@H](CCC(=O)O)C(=O)O)s4)cc3c2c(=O)[nH]1", 7.00]
]}

---

Test system: SW480 human colon adenocarcinoma
measurementNotes: Tumor cell culture cytotoxicity (MTT dye reduction), SW480
testSettings: read-out: Cell Culture Cytotoxicity CCCT SW-480; Table F, fully aromatic p-aminobenzoylglutamates

{"columns": ["molSmiles", "IC50 [nM]"],
 "data": [
  ["Cc1nc2ccc3ccc(CNc4ccc5c(=O)n([C@@H](CCC(=O)O)C(=O)O)sc5c4)cc3c2c(=O)[nH]1", 2000]
]}

---

# IC50 values compiled below
testSystem: Mammalian Thymidylate Synthase (Homo sapiens)
Construct: made in house; host or cells: Escherichia coli
measurementNotes: Thymidylate synthase inhibition, tritium release assay
Assay type: biochemical

{"columns": ["molecule", "testSystem", "IC50"],
 "data": [
  ["Nc1ccc2c(ccc3nc(N)nc(O)c32)c1 [3,8-Diaminobenzo(f)quinazolin-1(2H)-one]", "Mammalian Thymidylate Synthase (Homo sapiens)", "1000 to 300000 nM"],
  ["Nc1nc2ccc3ccc(Br)c(N)c3c2c(=O)[nH]1", "Mammalian Thymidylate Synthase (Homo sapiens)", "< 1000 nM"],
  ["COc1ccc2ccc3nc(N)[nH]c(=O)c3c2c1", "Mammalian Thymidylate Synthase (Homo sapiens)", "1000 to 300000 nM"],
  ["CC(=O)c1ccc(NCc2ccc3ccc4nc(N)[nH]c(=O)c4c3c2)cc1", "Mammalian Thymidylate Synthase (Homo sapiens)", "< 1000 nM"],
  ["Cc1nc2ccc3ccc(S(=O)(=O)Nc4ccc(C(=O)N[C@@H](CCC(=O)O)C(=O)O)cc4)cc3c2c(=O)[nH]1", "Mammalian Thymidylate Synthase (Homo sapiens)", "< 1000 nM"],
  ["Nc1nc2ccc3ccc(NS(=O)(=O)c4ccc(C(=O)O)cc4)cc3c2c(=O)[nH]1", "Mammalian Thymidylate Synthase (Homo sapiens)", "< 1000 nM"],
  ["C#Cc1ccc2ccc3nc(N)[nH]c(=O)c3c2c1", "Mammalian Thymidylate Synthase (Homo sapiens)", "< 1000 nM"],
  ["Nc1nc2ccc3cc(F)ccc3c2c(=O)[nH]1", "Mammalian Thymidylate Synthase (Homo sapiens)", "1000 to 300000 nM"],
  ["Nc1nc2ccc3cc([N+](=O)[O-])c(Br)cc3c2c(=O)[nH]1", "Mammalian Thymidylate Synthase (Homo sapiens)", "1000 to 300000 nM"],
  ["CCOc1ccc2ccc3nc(N)[nH]c(=O)c3c2c1", "Mammalian Thymidylate Synthase (Homo sapiens)", "1000 to 300000 nM"],
  ["Nc1nc2ccc3ccc(Br)c([N+](=O)[O-])c3c2c(=O)[nH]1", "Mammalian Thymidylate Synthase (Homo sapiens)", "< 1000 nM"],
  ["Nc1nc2ccc3cc(F)cc([N+](=O)[O-])c3c2c(=O)[nH]1", "Mammalian Thymidylate Synthase (Homo sapiens)", "1000 to 300000 nM"]
]}

---

measurementNotes: Cell culture cytotoxicity, L cells
Type: cell-based
testSettings: mouse, L fibroblast cell line; Table E, fully aromatic 3-methyl derivatives; read-out: Tumor Cell Culture Cytotoxicity IC50 Other (L)
# log10 of IC50 at 72 h values compiled below
experimentalEndpoint: log10 of IC50 at 72 h (log10 of the value in µM)

{"columns": ["molSmiles", "assayValue"],
 "data": [
  ["Cc1nc2ccc3ccc(Cl)cc3c2c(=O)[nH]1", 1.90],
  ["Cc1nc2ccc3c(Cl)cccc3c2c(=O)[nH]1", 1.92],
  ["Cc1nc(O)c2c(ccc3ccc(F)cc32)n1", 1.70],
  ["Cc1nc2ccc3ccc(CNc4ccc5c(c4)CCC5=O)cc3c2c(=O)[nH]1", -1.24],
  ["Cc1nc2ccc3ccc(CNc4ccc(C(=O)CCC(=O)O)cc4)cc3c2c(=O)[nH]1", 0.94]
]}

---

measurementNotes: Cell culture cytotoxicity, L cells
Assay type: cell-based
testSettings: mouse, L fibroblast cell line; Table B, fully aromatic 3-amino derivatives; read-out: Tumor Cell Culture Cytotoxicity IC50 Other (L)
# IC50 at 72 h values compiled below

{"columns": ["compound", "readoutUnits", "IC50 at 72 h"],
 "data": [
  ["Nc1nc2ccc3c(Br)cccc3c2c(=O)[nH]1", "µM", 28],
  ["Nc1nc2ccc3c([N+](=O)[O-])c(F)ccc3c2c(=O)[nH]1", "µM", 14],
  ["Nc1nc2ccc3c(Cl)cccc3c2c(=O)[nH]1", "µM", 46],
  ["COCc1cc2nc(N)nc(O)c2c2ccccc12", "µM", 56],
  ["Cc1cccc2c1ccc1nc(N)[nH]c(=O)c12", "µM", 32],
  ["Nc1ccc2c(ccc3nc(N)nc(O)c32)c1 [3,8-Diaminobenzo(f)quinazolin-1(2H)-one]", "µM", 40],
  ["Cc1ccc2ccc3nc(N)nc(O)c3c2c1", "µM", 8]
]}

---

testSystem: Mammalian Thymidylate Synthase (Homo sapiens, UniProt P04818)
Construct: made in house; host or cells: Escherichia coli
Sequence (P04818 whole entry): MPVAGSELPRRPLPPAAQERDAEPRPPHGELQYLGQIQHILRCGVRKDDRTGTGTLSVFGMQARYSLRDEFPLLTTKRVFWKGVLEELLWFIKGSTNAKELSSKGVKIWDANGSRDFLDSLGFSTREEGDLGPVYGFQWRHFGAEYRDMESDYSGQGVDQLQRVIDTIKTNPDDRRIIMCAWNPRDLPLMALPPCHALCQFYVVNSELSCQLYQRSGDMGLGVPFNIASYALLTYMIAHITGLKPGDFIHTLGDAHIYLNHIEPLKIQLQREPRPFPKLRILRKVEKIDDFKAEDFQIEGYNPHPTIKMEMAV
measurementNotes: Thymidylate synthase inhibition, tritium release assay
Assay type: biochemical
testSettings: Table A; vs. mammalian enzymes; read-out: I50
pIC50: −log10 of the molar value.
experimentalEndpoint: pIC50

{"columns": ["compound", "assayValue"],
 "data": [
  ["CC1Cc2nc(N)nc(O)c2-c2cc(Cl)ccc21 (stereo not drawn)", "> 6.00"],
  ["Nc1ccc2c(c1)-c1c(nc(N)[nH]c1=O)CC2", "3.52 to 6.00"],
  ["Cc1cccc2c1CCc1nc(N)[nH]c(=O)c1-2", "3.52 to 6.00"],
  ["Nc1nc(O)c2c(ccc3c(N)cccc32)n1", "3.52 to 6.00"],
  ["Nc1nc2c(c(=O)[nH]1)-c1cccc(Br)c1CC2", "3.52 to 6.00"],
  ["Cc1cc2nc(N)[nH]c(=O)c2c2ccccc12", "3.52 to 6.00"],
  ["CC1(C)Cc2nc(N)nc(O)c2-c2ccccc21", "3.52 to 6.00"],
  ["Cc1nc2c(c(=O)[nH]1)-c1cccc(Cl)c1CC2", "3.52 to 6.00"],
  ["Nc1nc2c(c(=O)[nH]1)-c1cccc(F)c1CC2", "3.52 to 6.00"],
  ["Nc1nc2ccc3c(Br)c(N)c(Br)cc3c2c(=O)[nH]1", "3.52 to 6.00"],
  ["Nc1nc2c(c(=O)[nH]1)-c1ccc(Cl)cc1CC2", "3.52 to 6.00"],
  ["Cc1ccc2c(c1)-c1c(O)nc(N)nc1CC2", "> 6.00"]
]}

---

Tested on: SW480 human colon adenocarcinoma
measurementNotes: Tumor cell culture cytotoxicity (MTT dye reduction), SW480
testSettings: Homo sapiens, SW480, read-out: Tumor Cell Culture Cytotoxicity IC50 SW480, Table E, fully aromatic 3-methyl derivatives
# IC50 values compiled below
experimentalEndpoint: IC50 (nM)

{"columns": ["compound", "experimentalEndpoint", "readoutUnits", "qualifier", "assayValue"],
 "data": [
  ["Cc1nc2ccc3ccc(CNc4ccc(C(=O)CC(CCC(=O)O)C(=O)O)cc4)cc3c2c(=O)[nH]1 (racemic)", "IC50", "nM", "=", 30],
  ["CCCCCCCCCCCCOC(=O)CCC(=O)c1ccc(NCc2ccc3ccc4nc(C)[nH]c(=O)c4c3c2)cc1", "IC50", "nM", "=", 400],
  ["Cc1nc2ccc3ccc(CNc4ccccc4)cc3c2c(=O)[nH]1", "IC50", "nM", "=", 7000],
  ["Cc1nc2ccc3ccc(Oc4ccc(C#N)cc4)cc3c2c(=O)[nH]1", "IC50", "nM", ">", 10000],
  ["Cc1nc2ccc3ccc(CNc4ccc5c(c4)CCC5=O)cc3c2c(=O)[nH]1", "IC50", "nM", "=", 15]
]}
